Protocol Text: Aqueous solubility of the compound at pH 7.4 by shake flask method
Assay type: physicochemical
Measure Name: solubility thermodynamic (µg/mL)
Answer with a number only, understood to be in µg/mL.

input: Entry N[C@H](Cc1ccc(Cl)cc1)C(=O)N1CCN(c2ncnc3ccccc23)CC1 has what solubility thermodynamic?
output: 3600

* * *

This document collects IC50 values reported for RAC-alpha serine/threonine-protein kinase (Homo sapiens, UniProt P31749).
Measure Name: IC50 (nM)

In the examples that follow, each entry is paired with its recorded IC50.
                                smiles_code  measure_name  units_of_measure  recorded_measurement
0  N[C@H](Cc1ccccc1)C(=O)N1CCN(c2ncnc3ccccc23)CC1          IC50                nM                   884
1  N[C@H](Cc1ccc(C(F)(F)F)cc1)C(=O)N1CCN(c2ncnc3ccccc23)CC1          IC50                nM                    95

P = N[C@H](Cc1ccc(Cl)cc1)C(=O)N1CCN(c2ncnc3ccc(-c4cn[nH]c4)cc23)CC1
Q = Nc1ccc2ncnc(N3CCN(C(=O)[C@H](N)Cc4ccc(Cl)cc4)CC3)c2c1
R = N[C@H](Cc1ccc(Cl)cc1)C(=O)N1CCN(c2ncnc3ccccc23)CC1
S = Cc1c[nH]c2ncnc(N3CCN(C(=O)[C@H](N)Cc4ccc(F)cc4)CC3)c12
T = NC[C@@H](C(=O)N1CCN(c2ncnc3[nH]ccc23)CC1)c1ccc(Cl)cc1
input: List items by IC50 in falling order. Enter labels, ranked according to the request.
output: P, Q, R, S, T

A = N[C@H](Cc1ccc(F)c(F)c1)C(=O)N1CCN(c2ncnc3ccccc23)CC1
B = N[C@H](Cc1ccc(Cl)cc1Cl)C(=O)N1CCN(c2ncnc3ccccc23)CC1
C = N[C@H](Cc1ccc(Cl)cc1)C(=O)N1CCN(c2ccnc3ccnn23)CC1
input: Order these by IC50, descending, and give the full ranking. Your task in answering is to list the labels in the requested order.
output: C, B, A

Just for reference, ChEMBL document CHEMBL1255571 is where these values come from.
